Reported protein stability index is given for each of the following sequences.
Tested on: Saccharomyces cerevisiae
assay text: protein stability index of tFT-peptide fusion (C-terminal peptide) (PSI (0-1 scale)); higher = more stable (slower turnover)
condition parameters: genetic background: wild type; temperature: 30 C

{"monomer sequence": "PRQLPVRKVSTG", "protein stability index": 0.704}
{"monomer sequence": "ATLWVWCFSSHV", "protein stability index": 0.497}
{"monomer sequence": "SATRLGLGLCWV", "protein stability index": 0.638}
{"monomer sequence": "RVGLCGSSLGVI", "protein stability index": 0.742}
{"monomer sequence": "YTVRRVWLVRSR", "protein stability index": 0.423}
{"monomer sequence": "SYVRLDLFFFLG", "protein stability index": 0.568}
{"monomer sequence": "RRRGRGAVGATR", "protein stability index": 0.716}

---

Test system: Saccharomyces cerevisiae;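 further: PSI is a weighted mean of sequencing reads over stability bins, variants kept only with over 10 reads, mCherry proximal and sfGFP distal, peptide attached via GGGS linker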
assay text: protein stability index of tFT-peptide fusion (C-terminal peptide) (PSI (0-1 scale)); higher = more stable (slower turnover)
condition parameters: genetic background: wild type; temperature: 30 C
Assign Criterion met to entries whose protein stability index meets or exceeds 0.7; assign Criterion not met to the rest.

{"monomer sequence": "DAELYLPSPTRL", "study target": "Saccharomyces cerevisiae", "assigned category": "Criterion not met"}
{"monomer sequence": "FSFPAPRGLLWV", "study target": "Saccharomyces cerevisiae", "assigned category": "Criterion not met"}
{"monomer sequence": "WCGTLVDRGCSL", "study target": "Saccharomyces cerevisiae", "assigned category": "Criterion not met"}
{"monomer sequence": "ATSPTPALPPLL", "study target": "Saccharomyces cerevisiae", "assigned category": "Criterion met"}
{"monomer sequence": "PLSLIRFSAFQS", "study target": "Saccharomyces cerevisiae", "assigned category": "Criterion not met"}
{"monomer sequence": "TARGAAARSSQL", "study target": "Saccharomyces cerevisiae", "assigned category": "Criterion met"}
{"monomer sequence": "FLHSERTLCFIS", "study target": "Saccharomyces cerevisiae", "assigned category": "Criterion not met"}
{"monomer sequence": "VVVRAGAIFAIP", "study target": "Saccharomyces cerevisiae", "assigned category": "Criterion not met"}
{"monomer sequence": "NAGSHHAAVKLG", "study target": "Saccharomyces cerevisiae", "assigned category": "Criterion not met"}
{"monomer sequence": "CLVFGFLFFIVI", "study target": "Saccharomyces cerevisiae", "assigned category": "Criterion not met"}
{"monomer sequence": "LSPFPLFAPFNF", "study target": "Saccharomyces cerevisiae", "assigned category": "Criterion not met"}
{"monomer sequence": "VFHSSTRDSFVS", "study target": "Saccharomyces cerevisiae", "assigned category": "Criterion met"}
{"monomer sequence": "VWSWFVIYFFFC", "study target": "Saccharomyces cerevisiae", "assigned category": "Criterion not met"}
{"monomer sequence": "FSFSAFARFLVI", "study target": "Saccharomyces cerevisiae", "assigned category": "Criterion not met"}
{"monomer sequence": "AEFSLFRPHSAA", "study target": "Saccharomyces cerevisiae", "assigned category": "Criterion not met"}
{"monomer sequence": "DPPPLPPAHSAS", "study target": "Saccharomyces cerevisiae", "assigned category": "Criterion not met"}
{"monomer sequence": "ARPVSRWCEASY", "study target": "Saccharomyces cerevisiae", "assigned category": "Criterion not met"}
{"monomer sequence": "TRLTSATHGVCC", "study target": "Saccharomyces cerevisiae", "assigned category": "Criterion not met"}
{"monomer sequence": "GKKKIDDKGRWI", "study target": "Saccharomyces cerevisiae", "assigned category": "Criterion not met"}
{"monomer sequence": "LFTVCMIIQMVH", "study target": "Saccharomyces cerevisiae", "assigned category": "Criterion not met"}
{"monomer sequence": "TLPFLYILDFFF", "study target": "Saccharomyces cerevisiae", "assigned category": "Criterion not met"}
{"monomer sequence": "QTTKRKKKAKKK", "study target": "Saccharomyces cerevisiae", "assigned category": "Criterion not met"}
{"monomer sequence": "PPPPLPPTPPPL", "study target": "Saccharomyces cerevisiae", "assigned category": "Criterion not met"}
{"monomer sequence": "AAFERRDPDLKV", "study target": "Saccharomyces cerevisiae", "assigned category": "Criterion met"}
{"monomer sequence": "SLHPPPPPFRLS", "study target": "Saccharomyces cerevisiae", "assigned category": "Criterion met"}
{"monomer sequence": "SLPPSSPLPPVS", "study target": "Saccharomyces cerevisiae", "assigned category": "Criterion not met"}
{"monomer sequence": "CLVSVDYFPPKL", "study target": "Saccharomyces cerevisiae", "assigned category": "Criterion met"}
{"monomer sequence": "FLPHPSPDPLPP", "study target": "Saccharomyces cerevisiae", "assigned category": "Criterion not met"}
{"monomer sequence": "KKKEILVYIIQE", "study target": "Saccharomyces cerevisiae", "assigned category": "Criterion not met"}
{"monomer sequence": "KKKKKIPKKAKR", "study target": "Saccharomyces cerevisiae", "assigned category": "Criterion not met"}
{"monomer sequence": "HPPPSNYWPSSA", "study target": "Saccharomyces cerevisiae", "assigned category": "Criterion not met"}
{"monomer sequence": "PPGPGRAPVRPA", "study target": "Saccharomyces cerevisiae", "assigned category": "Criterion not met"}
{"monomer sequence": "CGCVWVSYFFDK", "study target": "Saccharomyces cerevisiae", "assigned category": "Criterion not met"}
{"monomer sequence": "VRALGRDGIRQC", "study target": "Saccharomyces cerevisiae", "assigned category": "Criterion not met"}
{"monomer sequence": "IQPDVILLTRFV", "study target": "Saccharomyces cerevisiae", "assigned category": "Criterion not met"}
{"monomer sequence": "IVSISCPADWLD", "study target": "Saccharomyces cerevisiae", "assigned category": "Criterion met"}
{"monomer sequence": "KCAIKKQEQTSR", "study target": "Saccharomyces cerevisiae", "assigned category": "Criterion not met"}
{"monomer sequence": "CLCLCFLDYKAC", "study target": "Saccharomyces cerevisiae", "assigned category": "Criterion not met"}
{"monomer sequence": "QDLLNVSSFTRS", "study target": "Saccharomyces cerevisiae", "assigned category": "Criterion met"}
{"monomer sequence": "YCVCACCASLLA", "study target": "Saccharomyces cerevisiae", "assigned category": "Criterion not met"}
{"monomer sequence": "FFSGSVFMAVSL", "study target": "Saccharomyces cerevisiae", "assigned category": "Criterion not met"}
{"monomer sequence": "SLAGLLPCRLTP", "study target": "Saccharomyces cerevisiae", "assigned category": "Criterion not met"}

# credit: the supplement of paper PMC10724198
